Test: Repeated daily oral dose PK in cynomolgus monkey
Assay type: in vivo
Details: plasma, po, 0.1 mg/kg/day, unbound, Day 5, Group 2 (only I-57), 0.1 mg/kg/day oral, read-out: AUC0-24
measured_property: AUC(0-t)

**Q:** Give the reported AUC(0-t) for this compound. O=C1CCC(N2Cc3cc(C4CCN(Cc5ccccc5)CC4)ccc3C2=O)C(=O)N1 (stereo not shown) [Compound I-57]
**A:** 56.8 ng·h/mL

---

Test: Repeated daily oral dose PK in cynomolgus monkey
Type: in vivo
Settings: plasma, po, 0.1 mg/kg/day, unbound, Day 5, Group 4 (I-57 + KLH + adjuvant), 0.1 mg/kg/day oral
measured_property: Cmax

**Q:** Provide measured Cmax value, entry: O=C1CCC(N2Cc3cc(C4CCN(Cc5ccccc5)CC4)ccc3C2=O)C(=O)N1 (stereo not shown)
**A:** 11 ng/mL

---

Assay: Repeated oral dose PK in MDA-MB231 xenograft human PBMC adoptive transfer model
Format: in vivo, NSG mice
Conditions: female, NSG, mouse, plasma, po, 0.3 mg/kg, unbound; hPBMC AdT mouse; post 1st dose; p.o. 0.3 mg/kg daily
measured_property: AUC(0-inf) (ng·h/mL)
Record the value in ng·h/mL, omitting the unit from your answer.

**Q:** Write down AUC(0-inf) measured for item O=C1CCC(N2Cc3cc(C4CCN(Cc5ccccc5)CC4)ccc3C2=O)C(=O)N1 (stereo not shown)
**A:** 7.1

---

Assay: Repeated daily oral dose PK in cynomolgus monkey
Type: in vivo
Settings: plasma, po, 0.1 mg/kg/day, unbound, Day 29, Group 2 (only I-57), 0.1 mg/kg/day oral, read-out: AUC0-24
measured_property: AUC(0-t) (ng·h/mL)
Number only, in ng·h/mL; omit the unit.

**Q:** Retrieve AUC(0-t) measured for O=C1CCC(N2Cc3cc(C4CCN(Cc5ccccc5)CC4)ccc3C2=O)C(=O)N1 (stereo not shown) [Compound I-57] and print it.
**A:** 78.1

---

Experiment: Repeated oral dose PK in MDA-MB231 xenograft human PBMC adoptive transfer model
Assay type: in vivo, NSG mice
Settings: female, NSG, mouse, plasma, po, 1 mg/kg, unbound; hPBMC AdT mouse; post 13th dose; p.o. 1 mg/kg daily
measured_property: Cmax at 13 days (ng/mL)
Your answer should be a plain number; it is taken to be in ng/mL.

**Q:** Give Cmax at 13 days for the following compound: O=C1CCC(N2Cc3cc(C4CCN(Cc5ccccc5)CC4)ccc3C2=O)C(=O)N1 (stereo not shown)
**A:** 4.6

---

Test: In vivo non-clinical PK, mouse
Conditions: blood, po
measured_property: bioavailability (%)
Reply numerically in %, unit not repeated.

**Q:** Complete the entry with bioavailability for O=C1CCC(N2Cc3cc(C4CCN(Cc5ccccc5)CC4)ccc3C2=O)C(=O)N1 (stereo not shown)
**A:** 53

---

Experiment: Repeated daily oral dose PK in cynomolgus monkey
Format: in vivo
Conditions: plasma, po, 0.1 mg/kg/day, unbound, Day 5, Group 4 (I-57 + KLH + adjuvant), 0.1 mg/kg/day oral, read-out: AUC0-24
measured_property: AUC(0-t) (ng·h/mL)
Express it in ng·h/mL; write the number only.

**Q:** Consider the compound O=C1CCC(N2Cc3cc(C4CCN(Cc5ccccc5)CC4)ccc3C2=O)C(=O)N1 (stereo not shown) and give its recorded AUC(0-t).
**A:** 63.5

---

Experiment: Single oral dose PK in cynomolgus monkey
Type: in vivo
Settings: plasma, unbound, single oral dose 0.01 mg/kg, n = 3, mean ± SD
measured_property: Cmax (ng/mL)
Output spec: scalar in ng/mL, unitless text.

**Q:** Note down Cmax recorded for O=C1CCC(N2Cc3cc(C4CCN(Cc5ccccc5)CC4)ccc3C2=O)C(=O)N1 (stereo not shown)
**A:** 2.11

---

Assay: Repeated oral dose PK in MDA-MB231 xenograft human PBMC adoptive transfer model
Type: in vivo, NSG mice
Conditions: female, NSG, mouse, plasma, po, 3 mg/kg, unbound; hPBMC AdT mouse; post 1st dose; p.o. 3 mg/kg daily
measured_property: AUC(0-inf) (ng·h/mL)
Reply numerically in ng·h/mL, unit not repeated.

**Q:** Provide one value: measured AUC(0-inf) of O=C1CCC(N2Cc3cc(C4CCN(Cc5ccccc5)CC4)ccc3C2=O)C(=O)N1 (stereo not shown)
**A:** 157

---

Experiment: Repeated daily oral dose PK in cynomolgus monkey
Assay type: in vivo
Settings: plasma, po, 0.1 mg/kg/day, unbound, Day 29, Group 2 (only I-57), 0.1 mg/kg/day oral
measured_property: Cmax (ng/mL)
Record the value in ng/mL, omitting the unit from your answer.

**Q:** Output Cmax of O=C1CCC(N2Cc3cc(C4CCN(Cc5ccccc5)CC4)ccc3C2=O)C(=O)N1 (stereo not shown)
**A:** 13.1

---

Experiment: Repeated oral dose PK in MDA-MB231 xenograft human PBMC adoptive transfer model
Assay type: in vivo, NSG mice
Conditions: female, NSG, mouse, plasma, po, 0.3 mg/kg, unbound; hPBMC AdT mouse; post 13th dose; p.o. 0.3 mg/kg daily
measured_property: Cmax (ng/mL)
Give just the numeric value; ng/mL need not be written.

**Q:** For the compound O=C1CCC(N2Cc3cc(C4CCN(Cc5ccccc5)CC4)ccc3C2=O)C(=O)N1 (stereo not shown) , give its reported Cmax.
**A:** 1.1

---

Test: Repeated oral dose PK in MDA-MB231 xenograft human PBMC adoptive transfer model
Format: in vivo, NSG mice
Conditions: female, NSG, mouse, plasma, po, 1 mg/kg, unbound; hPBMC AdT mouse; post 13th dose; p.o. 1 mg/kg daily
measured_property: AUC(0-inf) (ng·h/mL)
Give the value, in units of ng·h/mL, as a plain number.

**Q:** Give a short answer stating reported AUC(0-inf) for O=C1CCC(N2Cc3cc(C4CCN(Cc5ccccc5)CC4)ccc3C2=O)C(=O)N1 (stereo not shown) .
**A:** 20

---

Assay: Repeated oral dose PK in MDA-MB231 xenograft human PBMC adoptive transfer model
Assay type: in vivo, NSG mice
Conditions: female, NSG, mouse, plasma, po, 30 mg/kg, unbound; hPBMC AdT mouse; post 1st dose; p.o. 30 mg/kg daily
Method: The PK/PD relationship of I-57 was examined in the hPBMC AdT model system. Human PBMCs were adoptively transferred into female NSG mice harboring established MDA-MB231 xenografts (FIG. 6). This model was selected based on the observation that IKZF2 positive Tregs (CD4+FOXP3+) were readily identifiable in peripheral blood and infiltrated in the tumor xenografts. Mice were administered I-57 daily for 14 consecutive days at the doses shown. […]
measured_property: Cmax

**Q:** Determine from records and report Cmax for O=C1CCC(N2Cc3cc(C4CCN(Cc5ccccc5)CC4)ccc3C2=O)C(=O)N1 (stereo not shown)
**A:** 1250 ng/mL

---

Assay: Repeated daily oral dose PK in cynomolgus monkey
Type: in vivo
Conditions: plasma, po, 0.1 mg/kg/day, unbound, Day 29, Group 4 (I-57 + KLH + adjuvant), 0.1 mg/kg/day oral
measured_property: Cmax (ng/mL)
Just the number in ng/mL, nothing appended.

**Q:** Look up and state reported Cmax for O=C1CCC(N2Cc3cc(C4CCN(Cc5ccccc5)CC4)ccc3C2=O)C(=O)N1 (stereo not shown)
**A:** 18

---

Assay: Repeated daily oral dose PK in cynomolgus monkey
Assay type: in vivo
Conditions: plasma, po, 0.1 mg/kg/day, unbound, Day 5, Group 2 (only I-57), 0.1 mg/kg/day oral
measured_property: Cmax
I'd appreciate it if you included the unit after the number.

**Q:** Note down Cmax recorded for O=C1CCC(N2Cc3cc(C4CCN(Cc5ccccc5)CC4)ccc3C2=O)C(=O)N1 (stereo not shown)
**A:** 7.1 ng/mL

---

Assay: Repeated oral dose PK in MDA-MB231 xenograft human PBMC adoptive transfer model
Assay type: in vivo, NSG mice
Details: female, NSG, mouse, plasma, po, 3 mg/kg, unbound; hPBMC AdT mouse; post 13th dose; p.o. 3 mg/kg daily
measured_property: AUC(0-inf) (ng·h/mL)
Hi! Could you send only the number? It should be in ng·h/mL, unit omitted.

**Q:** Please supply the value of reported AUC(0-inf) for the item O=C1CCC(N2Cc3cc(C4CCN(Cc5ccccc5)CC4)ccc3C2=O)C(=O)N1 (stereo not shown)
**A:** 92

---

Assay: Repeated daily oral dose PK in cynomolgus monkey
Type: in vivo
Conditions: plasma, po, 3 mg/kg/day, unbound, Day 5, Group 5 (I-57 + KLH + adjuvant), 3 mg/kg/day oral, read-out: AUC0-24
measured_property: AUC(0-t) (ng·h/mL)
Numeric answer only, unit ng·h/mL assumed.

**Q:** Return AUC(0-t) for the following compound: O=C1CCC(N2Cc3cc(C4CCN(Cc5ccccc5)CC4)ccc3C2=O)C(=O)N1 (stereo not shown)
**A:** 2840

---

Assay: Repeated oral dose PK in MDA-MB231 xenograft human PBMC adoptive transfer model
Assay type: in vivo, NSG mice
Conditions: female, NSG, mouse, plasma, po, 3 mg/kg, unbound; hPBMC AdT mouse; post 1st dose; p.o. 3 mg/kg daily
measured_property: Cmax (ng/mL)
Your answer should be a plain number; it is taken to be in ng/mL.

**Q:** Report Cmax, nothing else, for this compound: O=C1CCC(N2Cc3cc(C4CCN(Cc5ccccc5)CC4)ccc3C2=O)C(=O)N1 (stereo not shown) [Compound I-57]
**A:** 53
